Test system: 786-0 renal
TEST_METHOD_NOTES: NCI-60 one-dose screen, 48 h
CONDITION: 10 µM unless noted
About 83,000 compounds went through this panel and 20% of them were active in at least one assay; those are over-represented in the sample as a whole. Activity calls are given as the source filed them. Rule for the calls: active = growth percent below 10; inactive = the rest.
Your answer must be one of the following: active, inactive

Please review the entries below; each comes with its answer.
# MOLECULE, QUALITATIVE_LABEL
data = [
    ("COC(=O)C1=C(C(=O)ONCCN(C)C)C2C=CC1(C(Cc1ccccc1)Nc1ccc(F)cc1)O2 (stereo unspecified)", "inactive"),
    ("Nc1nc(N)nc(NCc2ccccc2)n1", "inactive"),
    ("CN(C)C(=O)OCc1nc2c(N3CCOCC3)nc(-c3ccccc3)nc2n1C", "active"),
    ("N#Cc1ccc(-c2ccc3c(c2)NC(=O)/C3=C\\c2ccc[nH]2)cc1", "inactive"),
    ("CCOC(=O)N1CCc2c(sc3nc4nc[nH]n4c(=O)c23)C1", "inactive"),
]

Incoming: What call does the record list for CC1NC(=S)NC(=O)/C1=C/c1cc(=O)oc2c1ccc1ccccc12 (stereo unspecified) ?
Outgoing: inactive

Incoming: What call does the record list for CCOC(=O)C1CC(=O)c2cc(OC)c(OC)cc2C1 (stereo unspecified) ?
Outgoing: inactive

Incoming: What call does the record list for O=c1[nH]c(=O)[nH]c(=S)[nH]1 ?
Outgoing: inactive

Incoming: What call does the record list for CCC(C)C(N)C(=O)NNc1n[nH]c(=S)n1N (stereo unspecified) ?
Outgoing: inactive

Incoming: What call does the record list for CCOC(=O)c1cnc2c(cnn2CC)c1NN=C(C)C ?
Outgoing: inactive
